FYI, the data here is from paper PMC5309722.

# Substrate: C=CC1=C(C)/C(=C/c2[nH]c(/C=C3N=C(/C=C4\NC(=O)C(C)=C4C=C)C(C)=C\3CCC(=O)O)c(CCC(=O)O)c2C)NC1=O
# Measurement Protocol: steady-state kinetics, A450 bilirubin formation
# Assay type: biochemical, Synechocystis sp. PCC 6803
# Experimental Context: 100 μM NADPH, 100 mM citrate pH 5.75
Quantity Name: kcat
Answers without a unit are incomplete; give the number and then its unit.

Exam item: If you can, please state the reported kcat value of Syn BVR (Synechocystis sp. PCC 6803 substr. Kazusa) (protein, full length, 328 residues; N-terminal His6 tag (pET15b), E. coli C41(DE3); tag cut with thrombin for crystals) MSENFAVATPVRVGIVGTGYAAQRRAEVFRGDRRSQLVSFWGNSEANTAKFADTFGVRPQQSWQALINDPEIDLVLIATINQLHGAIAEAALQAGKHVVLEYPLALTYAMGKKLQQLAREKGKLLHVEHIELLGGVHQAIRQNLGKIGEVFYARYSTIMGQNPAPQRWTYHHQQFGFPLVAALSRISRFTDLFGTVQQVDAQCRFWDQPNPEYFRACLATAYLQFNNGLKAEVIYGKGEVFHQNERIFTLHGDRGTLIFVGETGRLIQGQTETEITVGSRRGLFRQDTEAVLDYLTTGKPLYVDLEASLYALEVADLCAQACGYKVEN .
Marked response: 7.1 s⁻¹
